# measured on: human inducible NO-synthase (Homo sapiens, UniProt P35228)
# measurement protocol: Measurement of inducible NO-synthase activity ([3H]arginine conversion, crude cytosolic fraction)
# Assay type: biochemical
# details: 0.1 μM arginine, 45 to 60 min at 37° C., pH 7.2; read-out: Inhibition of iNOS activity [measured as −logIC50 (mol/l)] (converted)
Please use T for IC50 under 30 nM and F for everything else, ties included.

>>> class_label("COc1ccnc(CCc2nc3cc(-c4ccc(S(=O)(=O)N5CCC(C(=O)c6ccccc6)CC5)cc4)cnc3[nH]2)c1")
"F"
>>> class_label("COc1ccnc(CCc2nc3cc(-c4ccc(S(=O)(=O)NCCO)cc4)cnc3[nH]2)c1")
"F"
>>> class_label("COc1ccnc(CCc2nc3cc(-c4ccc(S(=O)(=O)N5CCc6cc(OC)c(OC)cc6C5)cc4)cnc3[nH]2)c1")
"F"
>>> class_label("COc1ccnc(CCc2nc3cc(-c4ccc(S(=O)(=O)N5CCCN(C)CC5)cc4)cnc3[nH]2)c1")
"T"
>>> class_label("COc1ccnc(CCc2nc3cc(-c4ccc(S(=O)(=O)N5CCC6(CC5)OCCO6)cc4)cnc3[nH]2)c1")
"T"
>>> class_label("COc1ccnc(CCc2nc3cc(-c4ccc(S(=O)(=O)N5CCN(c6ccc(C)cc6)CC5)cc4)cnc3[nH]2)c1")
"T"
>>> class_label("COc1ccnc(CCc2nc3cc(-c4ccc(S(=O)(=O)Nc5ccc(C)cc5)cc4)cnc3[nH]2)c1")
"F"
>>> class_label("COc1ccnc(CCc2nc3cc(-c4ccc(S(=O)(=O)N(CCO)CCO)cc4)cnc3[nH]2)c1")
"F"
>>> class_label("COc1ccnc(CCc2nc3cc(-c4ccc(S(=O)(=O)N5CCOCC5)cc4)cnc3[nH]2)c1")
"T"
